B1: Alpha-lactalbumin, P00712 (parent)
chain: MMSFVSLLLVGILFHATQAEQLTKCEVFQKLKDLKDYGGVSLPEWVCTAFHTSGYDTQAIVQNNDSTEYGLFQINNKIWCKDDQNPHSRNICNISCDKFLDDDLTDDIVCAKKILDKVGINYWLAHKALCSEKLDQWLCEKL

variants of: B1; conditions: Capra hircus; pH 2; 20 °C; Urea; CD; NaCl-HCl 100 mM; structure 1HFY; whole UniProt chain shown
Metric name: ddG of mutation (higher = less stable) (kcal/mol)
One number for each entry, in kcal/mol.

| Sequence data | ddG of mutation (higher = less stable) [kcal/mol] |
| --- | --- |
| MMSFVSLLLVGILFHATQAEQLTKCEVFQKLKDLKDYGGVSLPEWVCTIFHTSGYDTQAIVQNNDSTEYGLFQINNKIWCKDDQNPHSRNICNISCDKFLDDDLTDDIVCAKKILDKVGINYWLAHKALCSEKLDQWLCEKL [A49I] | -0.3 |
| MMSFVSLLLVGILFHATQAEQLTKCEVFQKLKDLKDYGGVSLPEWVCTAFHISGYDTQAIVQNNDSTEYGLFQINNKIWCKDDQNPHSRNICNISCDKFLDDDLTDDIVCAKKILDKVGINYWLAHKALCSEKLDQWLCEKL [T52I] | -0.32 |
| MMSFVSLLLVGILFHATQAEQLTKCEVFQKLKDLKDYGGVSLPEWVCIAFHTSGYDTQAIVQNNDSTEYGLFQINNKIWCKDDQNPHSRNICNISCDKFLDDDLTDDIVCAKKILDKVGINYWLAHKALCSEKLDQWLCEKL [T48I] | -0.07 |

Consider the variant shown here: MMSFVSLLLVGILFHATQAEQLTKCEVFQKLKDLKDYGGVSLPEWVCTTFHTSGYDTQAIVQNNDSTEYGLFQINNKIWCKDDQNPHSRNICNISCDKFLDDDLTDDIVCAKKILDKVGINYWLAHKALCSEKLDQWLCEKL [A49T] What is its recorded ddG of mutation (higher = less stable)? 0.14
